Measured values drawn from patent US10793557B2 for this set.

Biological target: full-length WT STING (Homo sapiens, UniProt Q86WV6, H232R)
Construct: AviTag (after gg linker) (C); HRV3C cleavage site (after gs linker) (C); HIS8 (C); made in house; host or cells: Trichoplusia ni (Hi-Five) insect cells infected with baculovirus (virus generated and amplified in Sf21 cells); used as a washed membrane preparation
Sequence (Q86WV6 with tags, fused parts or gaps H232R): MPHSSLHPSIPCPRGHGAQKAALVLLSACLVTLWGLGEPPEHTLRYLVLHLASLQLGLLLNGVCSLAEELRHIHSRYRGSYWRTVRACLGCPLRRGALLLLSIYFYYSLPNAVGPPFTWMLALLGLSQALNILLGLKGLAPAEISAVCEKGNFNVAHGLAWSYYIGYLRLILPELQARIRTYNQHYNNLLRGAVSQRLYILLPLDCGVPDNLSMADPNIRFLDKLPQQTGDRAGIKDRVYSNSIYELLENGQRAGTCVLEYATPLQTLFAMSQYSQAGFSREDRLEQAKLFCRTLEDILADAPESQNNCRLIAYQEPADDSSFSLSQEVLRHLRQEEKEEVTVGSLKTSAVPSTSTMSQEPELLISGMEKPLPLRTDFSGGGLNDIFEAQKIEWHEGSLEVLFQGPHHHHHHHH
Experiment: 3H-cGAMP filtration binding assay (WT STING)
Conditions: competition with tritiated cGAMP, WT STING membrane
Readout: EC50 (nM)

P. COc1cc2sc(C(=O)CC(C)(C)C(=O)O)cc2c(F)c1OCCCOc1c(OC)cc2sc(C(=O)CC(C)(C)C(=O)O)cc2c1F [Example 165]
Q. COc1cc2cc(C(=O)C[C@H](C)C(=O)O)sc2cc1OCCCOc1c(OC)cc2sc(C(=O)C[C@H](C)C(=O)O)cc2c1F [Example 70]
R. COc1cc2sc(C(=O)C[C@H](C)C(=O)O)cc2nc1OCCOc1c(OC)cc2sc(C(=O)C[C@H](C)C(=O)O)cc2c1F (racemic) [Example 19]
Asked: Sort these compounds on EC50 so the largest reading comes first. Sort and list the labels as requested.
Given back: R, P, Q

====

Target: full-length HAQ STING (Homo sapiens, UniProt Q86WV6, G230A/H232R/R293Q/R71H)
Construct: AviTag (after GG linker) (C); HRV3C cleavage site (after GS linker) (C); HIS8 (C); made in house; host or cells: Trichoplusia ni (Hi-Five) insect cells infected with baculovirus (virus generated and amplified in Sf21 cells); used as a washed membrane preparation
Sequence (Q86WV6 with tags, fused parts or gaps R71H/G230A/H232R/R293Q): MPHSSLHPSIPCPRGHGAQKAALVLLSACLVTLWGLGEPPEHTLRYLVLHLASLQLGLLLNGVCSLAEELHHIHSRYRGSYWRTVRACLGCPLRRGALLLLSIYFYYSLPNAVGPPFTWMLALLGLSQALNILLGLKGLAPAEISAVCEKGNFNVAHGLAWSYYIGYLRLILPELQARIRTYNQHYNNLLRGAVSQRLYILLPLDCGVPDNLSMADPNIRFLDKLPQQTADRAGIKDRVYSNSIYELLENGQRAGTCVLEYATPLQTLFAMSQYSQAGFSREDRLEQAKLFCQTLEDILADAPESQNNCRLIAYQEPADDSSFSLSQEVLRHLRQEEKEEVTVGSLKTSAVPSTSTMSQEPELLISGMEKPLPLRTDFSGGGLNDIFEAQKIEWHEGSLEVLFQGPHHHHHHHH
Assay: 3H-cGAMP filtration binding assay (HAQ STING)
Settings: competition with tritiated cGAMP, HAQ STING membrane
Readout: EC50 (nM)

Compound	EC50 (nM)
COc1cc2sc(C(=O)C[C@H](C)C(=O)O)cc2cc1CCCOc1nc2cc(C(=O)CCC(=O)O)sc2cc1OC	3
COc1cc2sc(C(=O)C[C@H](C)C(=O)O)cc2cc1CCCOc1c(OC)cc2sc(C(=O)[C@@H]3CCC3C(=O)O)cc2c1F (stereo partly drawn)	2
COc1cc2sc(C(=O)C[C@H](C)C(=O)O)cc2c(F)c1CCCOc1c(OC)cc2sc(C(=O)[C@@H]3CCC3C(=O)O)cc2c1F (stereo partly drawn)	1
COc1cc2sc(C(=O)C[C@H](C)C(=O)O)cc2nc1OCCOc1c(OC)cc2sc(C(=O)CCC(=O)O)cc2c1F	7

1. COc1cc2sc(C(=O)C[C@H](C)C(=O)O)cc2c(F)c1OCCC(C)Oc1c(OC)cc2sc(C(=O)C[C@H](C)C(=O)O)cc2c1F (stereo partly drawn)
2. COc1cc2sc(C(=O)CCC(=O)O)cc2c(F)c1OCCOc1c(OC)cc2sc(C(=O)C[C@H](C)C(=O)O)cc2c1F
Asked: Between the two listed entries 1 and 2 , which has its EC50 at the higher number? Record your answer as the label of the chosen record.
Given back: 1
(1: 2 nM, 2: 1 nM)

====

Target: full-length WT STING (Homo sapiens, UniProt Q86WV6, H232R)
Construct: AviTag (after gg linker) (C); HRV3C cleavage site (after gs linker) (C); HIS8 (C); made in house; host or cells: Trichoplusia ni (Hi-Five) insect cells infected with baculovirus (virus generated and amplified in Sf21 cells); used as a washed membrane preparation
Assay: 3H-cGAMP filtration binding assay (WT STING)
Details: competition with tritiated cGAMP, WT STING membrane
Readout: EC50 (nM)

I. COc1cc2sc(C(=O)CCC(=O)O)cc2c(F)c1OCCCOc1c(OC)cc2sc(C(=O)[C@@H]3C[C@H]3C(=O)O)cc2c1F (relative stereo) [Example 88]
II. COc1cc2sc(C(=O)C[C@H](C)C(=O)O)cc2cc1OCCOc1c(OC)cc2sc(C(=O)C[C@H](C)C(=O)O)cc2c1F [Example 67]
Asked: Between the two listed entries I and II , which has its EC50 at the higher number? Record your answer as the label of the chosen record.
Given back: I

I. COc1cc2sc(C(=O)C[C@H](C)C(=O)O)cc2cc1CCCOc1c(OC)cc2sc(C(=O)[C@@H]3C[C@H]3C(=O)O)cc2c1F [Example 84]
II. COc1cc2sc(C(=O)CCC(=O)O)cc2cc1OCCCc1nc2cc(C(=O)CCC(=O)O)sc2cc1OC [Example 13]
Asked: Between the two listed entries I and II , which has its EC50 at the higher number? Record your answer as the label of the chosen record.
Given back: I

P. COc1cc2sc(C(=O)CCC(=O)O)cc2c(F)c1OCCCCCOc1c(OC)cc2sc(C(=O)C[C@H](C)C(=O)O)cc2c1F [Example 118]
Q. COc1cc2sc(C(=O)C[C@H](C)C(=O)O)cc2cc1CCCOc1nc2cc(C(=O)CCC(=O)O)sc2cc1OC [Example 14]
Asked: # return whichever of P and Q has the smaller EC50 Record your answer as the label of the chosen record.
Given back: Q
(Q: 21 nM, P: 5000 nM)
